# Species on record: Rattus norvegicus
# PROTOCOL_DETAILS: DrugMatrix - Regimen: Daily Repeat
# Assay type: toxicity, organism-based, Sprague-Dawley
# Parameters: regimen Daily Repeat, gender Male, age 6-8 weeks
# CONDITIONS: in vivo, po, 10 mg/kg, 120 h, tissue Blood, route oral GAVAGE, dose level Low, time 5 day, vehicle .5 % CMC
QUANTITY_NAME: MEAN CORPUSCULAR VOLUME (fL)
Provide the reading as a plain figure in fL.

Before answering, review these 3 worked examples.
COc1c(C)c2c(c(O)c1C/C=C(\C)CCC(=O)OCCN1CCOCC1)C(=O)OC2 [MYCOPHENOLATE MOFETIL]
62.53
NS(=O)(=O)c1cc2c(cc1Cl)NCNS2(=O)=O [HYDROCHLOROTHIAZIDE]
60.83
O=C1CN=C(c2ccccc2)c2cc([N+](=O)[O-])ccc2N1 [NITRAZEPAM]
61.13

Could you now look at the following molecule, please?
Exercise: Please report the recorded MEAN CORPUSCULAR VOLUME for CC(=O)O[C@]1(C(C)=O)CC[C@H]2[C@@H]3C=C(Cl)C4=CC(=O)CC[C@]4(C)[C@H]3CC[C@@]21C [CHLORMADINONE ACETATE] .
Key: 59.77

----------
# Species on record: Rattus norvegicus
# PROTOCOL_DETAILS: DrugMatrix - Regimen: Daily Repeat
# Format: toxicity, organism-based, Sprague-Dawley
# Design: regimen Daily Repeat, gender Male, age 6-8 weeks
# CONDITIONS: in vivo, po, 0 mg/kg, 72 h, tissue Blood, route oral GAVAGE, dose level Control, time 3 day, […]
QUANTITY_NAME: ABSOLUTE LYMPHOCYTE (CELLS/uL)
# number only, unit CELLS/uL dropped from output

Sample records with ABSOLUTE LYMPHOCYTE:
CSc1ccc2c(c1)N(CCC1CCCCN1C)c1ccccc1S2 (stereo not given)
11440.17
c1ccc2[nH]c(-c3cscn3)nc2c1
10069.5
Oc1c(Cl)cc(Cl)cc1Sc1cc(Cl)cc(Cl)c1O
9048.5
Cn1cnc([N+](=O)[O-])c1Sc1ncnc2nc[nH]c12
7601
CC(C)n1c(/C=C/C(O)CC(O)CC(=O)O)c(-c2ccc(F)cc2)c2ccccc21 (stereo not given)
9048.5

Exercise: What value of ABSOLUTE LYMPHOCYTE has been recorded for this entry: CC1=C(/C=C/C(C)=C/C=C/C(C)=C\C(=O)O)C(C)(C)CCC1
Key: 8493

Exercise: What does the record list as ABSOLUTE LYMPHOCYTE for CCCC[C@@H](CC)COC(=O)c1ccccc1C(=O)OC[C@@H](CC)CCCC [BIS(2-ETHYLHEXYL)PHTHALATE] ?
Key: 10069.5

Exercise: // lookup ABSOLUTE LYMPHOCYTE for CCCCCCCCCc1ccc(O)cc1
Key: 11091.17

----------
# Species on record: Rattus norvegicus
# PROTOCOL_DETAILS: DrugMatrix - Regimen: Daily Repeat
# Type: toxicity, organism-based, Sprague-Dawley
# Parameters: regimen Daily Repeat, gender Male, age 6-8 weeks
# CONDITIONS: in vivo, po, 0 mg/kg, 120 h, tissue Plasma, route oral GAVAGE, dose level Control, time 5 day, vehicle .5 % CMC
QUANTITY_NAME: PHOSPHORUS
Answer format reminder: number followed by unit.

Consider the following illustrative entries.
CCc1cccc2c3c([nH]c12)C(CC)(CC(=O)O)OCC3 (stereo not drawn)
11.8 mg/dL
CN1CCC[C@@H]1CCO[C@](C)(c1ccccc1)c1ccc(Cl)cc1
12.3 mg/dL
O=c1cc(-c2ccccc2)oc2c1ccc1ccccc12
13.02 mg/dL
CC(/C=C1\SC(=S)N(CC(=O)O)C1=O)=C\c1ccccc1
12.3 mg/dL
COC(=O)c1ccc(O)cc1
12.32 mg/dL

Exercise: Look up PHOSPHORUS for this compound: CCc1ccc(C(=O)C(C)CN2CCCCC2)cc1 (stereo not drawn)
Key: 12.45 mg/dL

Exercise: Please report the recorded PHOSPHORUS for CC[C@H]1OC(=O)[C@H](C)[C@@H](O[C@H]2C[C@@](C)(OC)[C@@H](O)[C@H](C)O2)[C@H](C)[C@@H](O[C@@H]2O[C@H](C)C[C@H](N(C)C)[C@H]2O)[C@](C)(O)C[C@@H](C)/C(=N\OCOCCOC)[C@H](C)[C@@H](O)[C@]1(C)O .
Key: 11.8 mg/dL

Exercise: // PHOSPHORUS lookup, key: CCC[C@@H]1C[C@@H](C(=O)N[C@@H]([C@H]2O[C@H](SC)[C@H](O)[C@@H](O)[C@H]2O)[C@@H](C)O)N(C)C1
Key: 11.38 mg/dL
